# System: SF-295
# MEASUREMENT_NOTES: NCI tumour cell line growth inhibition, 48 h
Active and inactive are the calls of the source. No stated cut-off is given here; in the data, active = GI50 up to about 1.1 µM and inactive = higher.
QUANTITY: GI50

O=C1c2cn[nH]c2N=C(Nc2ccccc2)C1/N=C/c1ccc([N+](=O)[O-])cc1 (configuration not stated)    > 10 µM (inactive)
c1ccc2c(c1)c1c(c3ccccc32)CN2CCCC2C1 (configuration not stated)    3.09 µM (inactive)
O=c1c2c3c(sc2nc2n1N=CN(c1ccc(F)cc1)C2)CCCC3    > 100 µM (inactive)
CSc1nc2c(nc(N)n2C2OCC(O)C(O)C2O)c(=O)[nH]1 (configuration not stated)    > 100 µM (inactive)
Nc1nc(NCc2ccccc2)cc(NCc2ccccc2)n1    4.91 µM (inactive)

Input line: State the recorded GI50 for this entry: `O=C(c1ccco1)N(C(=S)N1CCN(c2ccccn2)CC1)C1CCCCC1`
Output line: > 100 µM (inactive)

Input line: State the recorded GI50 for this entry: `Oc1c(Cl)cc(CN(Cc2cc(Cl)c(O)c(Cl)c2)C2CCCCC2)cc1Cl`
Output line: > 100 µM (inactive)

---

Catalogue of GI50 readings, one per entry.
# Test system: DMS-114
# MEASUREMENT_NOTES: NCI tumour cell line growth inhibition, 48 h
The source made the active and inactive calls. Rule as the data show it: active = GI50 up to about 1.1 µM and inactive = higher.

// below: answered compounds
NC(=O)CN(CC(N)=O)C(N)=O    > 100 µM (inactive)
Cc1cc(OC(=O)c2c(C)cc(OC(=O)c3c(C)cc(O)cc3O)cc2O)cc(O)c1C(=O)O    > 100 µM (inactive)
O=C(O)/C(O)=C1/C=C(c2ccccc2)c2ccccc21    18.7 µM (inactive)

--- query ---
Input line: State the recorded GI50 for this entry: `C=CN1C(=O)OC[C@@H]1c1ccccc1`
Output line: 34.5 µM (inactive)

---

# Test system: MDA-MB-435
# MEASUREMENT_NOTES: NCI tumour cell line growth inhibition, 48 h
Calls of active or inactive are those of the source. Cut-off read from the data, not from the text of the source: active = GI50 up to about 1.1 µM and inactive = higher.
QUANTITY: GI50

COc1ccc(/C=N/NS(=O)(=O)c2ccc(/C=C3\NC(=O)NC3=O)cc2)cc1    > 100 µM (inactive)
CCn1c(-c2ccc(OC(C)=O)cc2)c(C)c2cc(OC(C)=O)ccc21    12.5 µM (inactive)
O=C(NN1C(=O)C=CC1=O)c1ccccc1Nc1ccccc1C(=O)NN1C(=O)C=CC1=O    > 100 µM (inactive)

Input line: State the recorded GI50 for this entry: `N#Cc1c(N2CCCC2)ncn(-c2ccccc2)c1=S`
Output line: > 100 µM (inactive)

Input line: State the recorded GI50 for this entry: `Clc1ccc(-c2nn3c(C45CC6CC(CC(C6)C4)C5)nnc3s2)cc1`
Output line: > 100 µM (inactive)

---

# System: OVCAR-3
# MEASUREMENT_NOTES: NCI tumour cell line growth inhibition, 48 h
Activity calls are given as the source filed them. Rule as the data show it: active = GI50 up to about 1.1 µM and inactive = higher.
QUANTITY: GI50

Input line: State the recorded GI50 for this entry: `Clc1ccc(/C=C/c2nc(-c3ccccc3)cn3c2nc2ccccc23)cc1Cl`
Output line: 31.9 µM (inactive)

Input line: State the recorded GI50 for this entry: COc1ccc(C(C#N)NNc2nc(C)cc(O)n2)cc1OC (centres undefined)
Output line: > 100 µM (inactive)

Input line: State the recorded GI50 for this entry: CCOC(=O)C(C[Si](C)(C)C)P(=O)(OCC)OCC (centres undefined)
Output line: > 100 µM (inactive)

Input line: State the recorded GI50 for this entry: `Cc1ccc(C2=C(c3ccccc3)C(O)(c3ccc(C)cc3)C(c3ccccc3)=C2c2ccc(C)cc2)cc1`
Output line: 69 µM (inactive)

---

# Test system: MDA-MB-435
# MEASUREMENT_NOTES: NCI tumour cell line growth inhibition, 48 h
Active and inactive are the calls of the source. Cut-off read from the data, not from the text of the source: active = GI50 up to about 1.1 µM and inactive = higher.
Select the correct class. Options are Yes = active, No = inactive and nothing else.

NC(CP(=O)(O)O)C(=O)O (stereo unspecified)    No
CN(CCc1ccc(N)cc1)[C@H]1CCCC[C@H]1N1CCCC1    No
COC(O)C(=O)c1c2c(cc3c1CC1(Cc4cc5c(cc4C1)CCC5)C3)CCC2 (stereo unspecified)    No
N#CC1(C#N)C(c2ccccc2)NC23CCCCC2C1(C#N)C(=O)N3 (stereo unspecified)    No

Input line: For `Cc1cc(C)nc(NC(=O)c2ccc(Br)s2)c1` , which call appears in the assay record?
Output line: No

Input line: For `Cc1ccc(-c2c(-c3ccccc3)[nH]c(C)c2C(=O)ONC(=O)c2ccccc2)cc1` , which call appears in the assay record?
Output line: No

Input line: For `Cc1ccc(-c2n[nH]c(=O)n2N)cc1` , which call appears in the assay record?
Output line: No

Input line: For `CC(C)=CCNc1nc(Cl)nc2[nH]cnc12` , which call appears in the assay record?
Output line: No

Input line: For CC(=O)OC1CC[C@]2(C)C3CC[C@@]4(C)C(CCC4[C@H](C)CCCC(C)C)[C@@H]3CCC2(Br)C1 (stereo partly specified) , which call appears in the assay record?
Output line: No

Input line: For `Clc1ccccc1C(Nc1cnccn1)Nc1cnccn1` , which call appears in the assay record?
Output line: No

Input line: For `C[C@H]1O[C@@H](O[C@H]2[C@@H](O)C[C@H](O[C@H]3[C@@H](O)C[C@H](O[C@H]4CC[C@@]5(C)[C@H](CC[C@@H]6[C@@H]5CC[C@]5(C)[C@@H](C7=CC(=O)OC7)[C@@H](O)C[C@]65O)C4)O[C@@H]3C)O[C@@H]2C)C[C@H](O)[C@@H]1O` , which call appears in the assay record?
Output line: Yes

---

# Tested on: SNB-78
# MEASUREMENT_NOTES: NCI tumour cell line growth inhibition, 48 h
The source made the active and inactive calls. Rule as the data show it: active = GI50 up to about 1.1 µM and inactive = higher.
Select the correct class. Options are YES (active), NO (inactive) and nothing else.

Below are worked cases with known answers.
O=C1CCCCC1C1(O)C(=O)Nc2cc(F)ccc21 (stereo not given)    NO
CC(C)=CCC/C(C)=C/CC/C(C)=C/C(O)c1ccccc1 (stereo not given)    NO
CCCC(=O)N[C@H]1CCc2cc(OC)c(OC)c(OC)c2-c2ccc(SC)c(=O)cc21    YES
NC(=O)CN(CC(N)=O)C(N)=O    NO

Input line: For `CC1=C(/C(C)=N/NC(=O)c2ccccc2O)C(C)C(/C(C)=N/NC(=O)c2ccccc2O)=C(C)N1` , which call appears in the assay record?
Output line: NO

Input line: For COc1ccc(C(C#N)NNc2nc(C)cc(O)n2)cc1OC (stereo not given) , which call appears in the assay record?
Output line: NO

Input line: For O=C(O[C@H]1[C@@H]2C=CO[C@@H](OC3OC(CO)C(O)C(O)C3O)[C@@H]2[C@@]2(CO)O[C@@H]12)c1ccc(O)c(O)c1 (stereo not given in full) , which call appears in the assay record?
Output line: NO

---

# Test system: NCI-H23
# MEASUREMENT_NOTES: NCI tumour cell line growth inhibition, 48 h
Active and inactive are the calls of the source. Cut-off read from the data, not from the text of the source: active = GI50 up to about 1.1 µM and inactive = higher.
Catalogue of GI50 readings, one per entry.

Input line: Return GI50 measured with NCI-H23 given this compound: `Nc1c(-c2ccccc2-c2c(N)[n+]([O-])c3ccccc3[n+]2[O-])[n+]([O-])c2ccccc2[n+]1[O-]`
Output line: 15.6 µM (inactive)

Input line: Return GI50 measured with NCI-H23 given this compound: `COc1ccc([C@]23CCN4COC[C@@H]([C@H]42)C2(CC3)OCC(C)(C)CO2)cc1OC`
Output line: > 100 µM (inactive)

Input line: Return GI50 measured with NCI-H23 given this compound: CCN1CCC(O)(c2ccc(O)cc2)C(C(=O)c2ccc(O)cc2)C1 (stereo not given)
Output line: 20.3 µM (inactive)

Input line: Return GI50 measured with NCI-H23 given this compound: `Cc1nc(C(N)=S)sc1C(=O)/C=C/c1c(O)ccc2ccccc12`
Output line: > 67.5 µM (inactive)

Input line: Return GI50 measured with NCI-H23 given this compound: CN1C2CCC1CC(CCOC(c1ccc(F)cc1)c1ccc(F)cc1)C2 (stereo not given)
Output line: 19.5 µM (inactive)

Input line: Return GI50 measured with NCI-H23 given this compound: `Cc1ccc(C(=O)/C=C/c2ccccc2Cl)cc1`
Output line: 19 µM (inactive)

Input line: Return GI50 measured with NCI-H23 given this compound: `c1ccc(COc2cccc3ccc[n+](Cc4ccccc4)c23)cc1`
Output line: 2.84 µM (inactive)

Input line: Return GI50 measured with NCI-H23 given this compound: CN1CC(=O)N2Cc3ccccc3-n3cccc3C2C1 (stereo not given)
Output line: > 100 µM (inactive)

Input line: Return GI50 measured with NCI-H23 given this compound: COc1ccc(C(=O)C(c2ccc(OC)cc2)C2(O)C(=O)Nc3ccc([N+](=O)[O-])cc32)cc1 (stereo not given)
Output line: > 100 µM (inactive)

Input line: Return GI50 measured with NCI-H23 given this compound: CC(C)[C@@H]1CC[C@@H](C)C[C@H]1OC(=O)/C=C1\C(C(=O)O[C@@H]2C[C@H](C)CC[C@H]2C(C)C)[C@H]2C=C[C@@H]1O2 (stereo not given in full)
Output line: 36.7 µM (inactive)
